Provide the reported pIC50 of each item.
# Assayed System: GST-Syk Full Protein (human) (Homo sapiens, UniProt P43405)
# Protocol Details: Syk kinase inhibition test (HTRF method)
# Type: biochemical
# Measurement Setup: Tables 1-x, compounds A; read-out: sykHTRF ave IC50
pIC50: −log10 of the molar value.

For the compound CC(=O)N[C@@H]1CCN(c2ncc(-c3cccc(Nc4cc(C)ccn4)n3)s2)C1 [Compound A-472] , give its measured pIC50 value. > 7.00

For the compound Cc1ccnc(Nc2cccc(-c3cnc(N4CCC(O)CC4)s3)n2)c1 [Compound A-433] , give its measured pIC50 value. > 7.00

For the compound CC(O)c1ccnc(Nc2cccc(-c3cnc(N4CCC(C(N)=O)CC4)s3)n2)c1 (centres unmarked) [Compound A-547] , give its measured pIC50 value. > 7.00

For the compound Cc1ccnc(Nc2cccc(-c3cnc(CN4C(=O)CN(Cc5ccccc5)CC4=O)s3)n2)c1 [Compound A-391] , give its measured pIC50 value. < 6.00

For the compound CCOC(=O)N1CCC(N(C)c2ncc(-c3cccc(Nc4cc(C)ccn4)n3)s2)CC1 [Compound A-445] , give its measured pIC50 value. 6.00 to 7.00

For the compound Cc1ccnc(Nc2cccc(-c3cnc(N4CCOc5c(C(=O)O)cccc54)s3)n2)c1 [Compound A-614] , give its measured pIC50 value. > 7.00

For the compound CC(=O)N[C@H]1CN(Cc2ncc(-c3cccc(Nc4cc(C)ccn4)n3)s2)C[C@@H]1O [Compound A-414] , give its measured pIC50 value. 6.00 to 7.00

For the compound Cc1ccnc(Nc2cccc(-c3cnc(N4CCC(C5=NC(C)(C)CO5)CC4)s3)n2)c1 [Compound A-456] , give its measured pIC50 value. 6.00 to 7.00

----------
Provide the reported pIC50 of each item.
# Tested on: cultured human mast cells
# Protocol Details: Degranulation inhibition test using cultured human mast cells (IgE cross-linking, β-Hexosaminidase release)
# Type: cell-based
# Measurement Setup: Mast cell; cultured human mast cells, anti-hIgE stimulation, β-Hexosaminidase index, average; read-out: human degranulation ave. IC50
pIC50: −log10 of the molar value.

For the molecule CC(=O)N1CCC[C@H]1c1ncc(-c2cccc(Nc3cc(C)ccn3)n2)s1 , give its measured pIC50 value. 6.00 to 7.00

For the molecule CC(=O)N[C@@H](C)c1ncc(-c2cccc(Nc3cc(-c4ccncc4)ccn3)n2)s1 , give its measured pIC50 value. 6.00 to 7.00

For the molecule CCOC(=O)c1ncc(-c2cccc(Nc3cc(C)ccn3)n2)s1 , give its measured pIC50 value. 6.00 to 7.00

For the molecule Cc1ccnc(Nc2cccc(-c3cnc([C@@H](O)CO)s3)n2)c1 , give its measured pIC50 value. 6.00 to 7.00

For the molecule Cc1ccnc(Nc2cccc(-c3cnc([C@H]4CC[C@H](C(=O)N5CCCCC5)CC4)s3)n2)c1 , give its measured pIC50 value. < 6.00

For the molecule Cc1ccnc(Nc2cccc(-c3cnc([C@H]4CC[C@H](C(=O)N5C[C@H](O)C[C@@H](O)C5)CC4)s3)n2)c1 , give its measured pIC50 value. 6.00 to 7.00

For the molecule CC(=O)N1CCN(C(=O)[C@H]2CC[C@H](c3ncc(-c4cccc(Nc5cc(C)ccn5)n4)s3)CC2)CC1 , give its measured pIC50 value. < 6.00

For the molecule Cc1ccnc(Nc2cccc(-c3cnc([C@H]4CC[C@H](C(=O)N5CCOCC5)CC4)s3)n2)c1 , give its measured pIC50 value. 6.00 to 7.00

----------
Provide the reported IC50 of each item.
# Assayed System: GST-Syk Full Protein (human) (Homo sapiens)
# Protocol Details: Syk kinase inhibition test (HTRF method)
# Assay type: biochemical
# Measurement Setup: Tables 1-x, compounds A; read-out: sykHTRF ave IC50

For the molecule Cc1cccc(Nc2cccc(-c3cnc(N4CCC(CC(=O)O)CC4)s3)n2)n1 , give its measured IC50 value. 100 to 1000 nM

For the molecule Cc1ccnc(Nc2cccc(-c3cnc(NC(C)C)s3)n2)c1 , give its measured IC50 value. < 100 nM

For the molecule Cc1ccnc(Nc2cccc(-c3cnc(N4CCC(CC(N)=O)CC4)s3)n2)c1 , give its measured IC50 value. < 100 nM

For the molecule Cc1ccnc(Nc2cccc(-c3cnc(N4CCC(N(C)S(C)(=O)=O)CC4)s3)n2)c1 , give its measured IC50 value. < 100 nM

For the molecule Cc1ccnc(Nc2cccc(-c3cnc(N(C)c4ccc(/C=C/C(=O)O)cc4)s3)n2)c1 , give its measured IC50 value. 100 to 1000 nM

For the molecule COC(=O)NCCN(c1ncc(-c2cccc(Nc3cc(C)ccn3)n2)s1)C1CCN(C(C)=O)CC1 , give its measured IC50 value. 100 to 1000 nM

For the molecule Cc1ccnc(Nc2cccc(-c3cnc(N(CCO)C4CCCCC4)s3)n2)c1 , give its measured IC50 value. 100 to 1000 nM

For the molecule Cc1ccnc(Nc2cccc(-c3cnc(N(C)C4CCC(C(=O)O)CC4)s3)n2)c1 (centres unmarked) , give its measured IC50 value. < 100 nM

----------
# Test system: cultured human mast cells
# Protocol Details: Degranulation inhibition test using cultured human mast cells (IgE cross-linking, β-Hexosaminidase release)
# Format: cell-based
# Measurement Setup: Mast cell; cultured human mast cells, anti-hIgE stimulation, β-Hexosaminidase index, average; read-out: human degranulation ave. IC50
Provide the reported IC50 of each item.

For the compound Cc1ccnc(Nc2cccc(-c3cnc(CNCCC(=O)O)s3)n2)c1 , give its measured IC50 value. > 1000 nM

For the compound CNc1ncc(-c2cccc(Nc3cc(C)ccn3)n2)s1 , give its measured IC50 value. 100 to 1000 nM

For the compound Cc1ccnc(Nc2cccc(-c3cnc(N4CCC(C(=O)NCCO)CC4)s3)n2)c1 , give its measured IC50 value. 100 to 1000 nM

For the compound Cc1ccnc(Nc2cccc(-c3cnc(CN4CCC(O)CC4)s3)n2)c1 , give its measured IC50 value. 100 to 1000 nM

For the compound Cc1ccnc(Nc2cccc(-c3cnc(CN4CCN(CCO)CC4)s3)n2)c1 , give its measured IC50 value. > 1000 nM

For the compound Cc1ccnc(Nc2cccc(-c3cnc([C@H]4CC[C@H](C(=O)N[C@H]5CC[C@H](O)CC5)CC4)s3)n2)c1 , give its measured IC50 value. 100 to 1000 nM

For the compound Cc1ccnc(Nc2cccc(-c3cnc([C@H]4CC[C@H](C(=O)N[C@H](CO)Cc5cnc[nH]5)CC4)s3)n2)c1 , give its measured IC50 value. > 1000 nM

For the compound COC(=O)[C@H]1CC[C@H](c2ncc(-c3cccc(Nc4cc(Cl)ccn4)n3)s2)CC1 , give its measured IC50 value. 100 to 1000 nM

----------
# Assayed System: GST-Syk Full Protein (human) (Homo sapiens)
# Protocol Details: Syk kinase inhibition test (HTRF method)
# Type: biochemical
# Measurement Setup: HTRF, 100 μM ATP, 30 min room temperature, average; read-out: sykHTRF ave IC50
pIC50: −log10 of the molar value.
Measured Metric: pIC50

Check GST-Syk Full Protein (human) (Homo sapiens) data and give pIC50 for Cc1ccnc(Nc2cccc(-c3cnc(C)s3)n2)c1 [Compound A-231] . 6.00 to 7.00

Check GST-Syk Full Protein (human) (Homo sapiens) data and give pIC50 for Cc1ccnc(Nc2cccc(-c3cnc(CCC4CCN(C(=O)C5CCNCC5)CC4)s3)n2)c1 [Compound A-295] . > 7.00

Check GST-Syk Full Protein (human) (Homo sapiens) data and give pIC50 for Cc1ccnc(Nc2cccc(-c3cnc(CCc4ccc(O)cc4)s3)n2)c1 [Compound A-135] . > 7.00

Check GST-Syk Full Protein (human) (Homo sapiens) data and give pIC50 for CC(=O)N1C[C@H](O)C[C@H]1c1ncc(-c2cccc(Nc3cc(C)ccn3)n2)s1 [Compound A-95] . 6.00 to 7.00

Check GST-Syk Full Protein (human) (Homo sapiens) data and give pIC50 for Cc1ccnc(Nc2cccc(-c3cnc([C@H]4CC[C@H](C(=O)N[C@H](CO)Cc5cnc[nH]5)CC4)s3)n2)c1 [Compound A-304] . > 7.00

Check GST-Syk Full Protein (human) (Homo sapiens) data and give pIC50 for CC(=O)N[C@@H](C)c1nc(C)c(-c2cccc(Nc3cc(C)ccn3)n2)s1 [Compound A-105] . 6.00 to 7.00

Check GST-Syk Full Protein (human) (Homo sapiens) data and give pIC50 for Cc1ccnc(Nc2cccc(-c3cnc([C@H](C)NC(=O)[C@H](C)O)s3)n2)c1 [Compound A-32] . 6.00 to 7.00

Check GST-Syk Full Protein (human) (Homo sapiens) data and give pIC50 for C/C(=N\OCCO)c1ncc(-c2cccc(Nc3cc(C)ccn3)n2)s1 [Compound A-35] . > 7.00

Check GST-Syk Full Protein (human) (Homo sapiens) data and give pIC50 for Cc1ccnc(Nc2cccc(-c3cnc(CC4CCC(O)CC4)s3)n2)c1 (stereo not drawn) [Compound A-341] . > 7.00

Check GST-Syk Full Protein (human) (Homo sapiens) data and give pIC50 for CC(=O)N(C)[C@H](c1ccc(O)cc1)c1ncc(-c2cccc(Nc3cc(C)ccn3)n2)s1 [Compound A-372] . > 7.00

Check GST-Syk Full Protein (human) (Homo sapiens) data and give pIC50 for CC(=O)Nc1nc(C)c(-c2cccc(Nc3cc(C)ccn3)n2)s1 [Compound A-20] . > 7.00

Check GST-Syk Full Protein (human) (Homo sapiens) data and give pIC50 for Cc1ccnc(Nc2cccc(-c3cnc(C(C)(C)CC(=O)O)s3)n2)c1 [Compound A-145] . 6.00 to 7.00

Check GST-Syk Full Protein (human) (Homo sapiens) data and give pIC50 for C[C@H](O)c1ncc(-c2cccc(Nc3cc(Cl)ccn3)n2)s1 [Compound A-322] . > 7.00

Check GST-Syk Full Protein (human) (Homo sapiens) data and give pIC50 for Cc1ccnc(Nc2cccc(-c3cnc(Cc4ccc(C(=O)N5C[C@@H](O)[C@@H](O)C5)cc4)s3)n2)c1 [Compound A-244] . 6.00 to 7.00

Check GST-Syk Full Protein (human) (Homo sapiens) data and give pIC50 for Cc1ccnc(Nc2cccc(-c3cnc(CN4CCC(C(=O)O)CC4)s3)n2)c1 [Compound A-168] . 6.00 to 7.00

Check GST-Syk Full Protein (human) (Homo sapiens) data and give pIC50 for CC(=O)Nc1nc(C)c(-c2cncc(Nc3cc(C)ccn3)n2)s1 [Compound A-21] . > 7.00

Check GST-Syk Full Protein (human) (Homo sapiens) data and give pIC50 for Cc1ccnc(Nc2cccc(-c3cnc([C@H](C)NC(=O)C4CCC(O)CC4)s3)n2)c1 (stereo partly drawn) [Compound A-349] . 6.00 to 7.00

Check GST-Syk Full Protein (human) (Homo sapiens) data and give pIC50 for COC(=O)CCCCc1ncc(-c2cccc(Nc3cc(C)ccn3)n2)s1 [Compound A-68] . 6.00 to 7.00

Check GST-Syk Full Protein (human) (Homo sapiens) data and give pIC50 for Cc1ccnc(Nc2cccc(-c3cnc(COCC(=O)N(C)C)s3)n2)c1 [Compound A-368] . 6.00 to 7.00

Check GST-Syk Full Protein (human) (Homo sapiens) data and give pIC50 for Cc1ccnc(Nc2cccc(-c3cnc(CCCCCO)s3)n2)c1 [Compound A-70] . > 7.00

Check GST-Syk Full Protein (human) (Homo sapiens) data and give pIC50 for Cc1ccnc(Nc2cccc(-c3cnc([C@@H]4CCCC(=O)N4)s3)n2)c1 [Compound A-363] . 6.00 to 7.00

Check GST-Syk Full Protein (human) (Homo sapiens) data and give pIC50 for Cc1ccnc(Nc2cccc(-c3cnc([C@H](C)NC(=O)C(C)C)s3)n2)c1 [Compound A-31] . 6.00 to 7.00

Check GST-Syk Full Protein (human) (Homo sapiens) data and give pIC50 for COC(=O)[C@H]1CC[C@H](c2ncc(-c3cccc(Nc4cc(C)ccn4)n3)s2)CC1 [Compound A-6] . 6.00 to 7.00

Check GST-Syk Full Protein (human) (Homo sapiens) data and give pIC50 for Cc1ccnc(Nc2cccc(-c3cnc([C@H]4CC[C@H](CN5CCCC(O)C5)CC4)s3)n2)c1 (stereo partly drawn) [Compound A-315] . 6.00 to 7.00

Check GST-Syk Full Protein (human) (Homo sapiens) data and give pIC50 for Cc1ccnc(Nc2cccc(-c3cnc(C(=O)NC4CCCCC4O)s3)n2)c1 (stereo not drawn) [Compound A-67] . 6.00 to 7.00

Check GST-Syk Full Protein (human) (Homo sapiens) data and give pIC50 for COC(=O)COCc1ncc(-c2cccc(Nc3cc(C)ccn3)n2)s1 [Compound A-361] . 6.00 to 7.00

Check GST-Syk Full Protein (human) (Homo sapiens) data and give pIC50 for Cc1ccnc(Nc2cccc(-c3cnc(CCc4ccc(C(=O)O)cc4)s3)n2)c1 [Compound A-151] . > 7.00

Check GST-Syk Full Protein (human) (Homo sapiens) data and give pIC50 for Cc1ccnc(Nc2cccc(-c3cnc([C@H]4CC[C@H](C(=O)N5CCC(N(C)C)C5)CC4)s3)n2)c1 (stereo partly drawn) [Compound A-287] . 6.00 to 7.00

Check GST-Syk Full Protein (human) (Homo sapiens) data and give pIC50 for Cc1ccnc(Nc2cccc(-c3cnc(CCCCC(=O)O)s3)n2)c1 [Compound A-69] . > 7.00

Check GST-Syk Full Protein (human) (Homo sapiens) data and give pIC50 for Cc1ccnc(Nc2cccc(-c3cnc(CN(C)C(=O)C4CC4)s3)n2)c1 [Compound A-358] . 6.00 to 7.00

Check GST-Syk Full Protein (human) (Homo sapiens) data and give pIC50 for Cc1ccnc(Nc2cccc(-c3cnc(C(=O)NCC(C)O)s3)n2)c1 (stereo not drawn) [Compound A-66] . 6.00 to 7.00

Check GST-Syk Full Protein (human) (Homo sapiens) data and give pIC50 for COc1ccc(CCc2ncc(-c3cccc(Nc4cc(C)ccn4)n3)s2)cc1 [Compound A-137] . 6.00 to 7.00

Check GST-Syk Full Protein (human) (Homo sapiens) data and give pIC50 for Cc1ccnc(Nc2cccc(-c3cnc([C@@H]4COC(=O)N4C)s3)n2)c1 [Compound A-11] . 6.00 to 7.00
